Measured protein stability index accompanies every entry in the list below.
B1: SNX3 (parent)
chain: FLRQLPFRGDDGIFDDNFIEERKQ

# Variants of: B1
# Assay text: protein stability index of a GFP-peptide fusion (GPS, HEK-293T) (PSI 1-6); higher = more stable;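 also: lentivirally expressed fusions sorted by FACS into six bins by GFP to DsRed ratio, PSI derived from sequencing read proportions per bin multiplied by bin number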
# Test conditions: c terminus: a fixed tail appended
Test readout: protein stability index

1) FLRQLPFRGDDGIFDDNFIEERHQ: 3.38
2) FLRQLPFRGDDGIFDDNFIEEIKQ: 2.78
3) FLRQLPFRGDDYIFDDNFIEERKQ: 2.91
4) FLRQLPFRGCDGIFDDNFIEERKQ: 3.52
5) FLRQLPFRGDDGIFQDNFIEERKQ: 2.97
6) FLRQLPFRGDDGIFDDNFIMERKQ: 2.79
7) FLRQLWFRGDDGIFDDNFIEERKQ: 2.15
8) FLSQLPFRGDDGIFDDNFIEERKQ: 3.1
9) FLRQLPFRGDDGIFDDNFIEERKI: 3.02
10) FLRQLPFRGDDGIFDDDFIEERKQ: 3.83
11) FLRQLPFRGDDGIFDDNFIEEPKQ: 3
12) FLRQLPFRGDDGIFDDNFIEERQQ: 3.21
13) FLRQLPFRGDDGVFDDNFIEERKQ: 3.3
14) FLRQLFFRGDDGIFDDNFIEERKQ: 2.14
15) FLRQLPFRGDDGQFDDNFIEERKQ: 4.03
16) FLRQLPFRGDQGIFDDNFIEERKQ: 3.16
17) FLRQLPCRGDDGIFDDNFIEERKQ: 3.16
18) FLRQLPFRGDVGIFDDNFIEERKQ: 4.03
19) FLRQLPFRGDDGIFDDNFIEETKQ: 3.77
20) FLRWLPFRGDDGIFDDNFIEERKQ: 2.7
21) FLRFLPFRGDDGIFDDNFIEERKQ: 2.44
22) FLRQLPFRGDDGITDDNFIEERKQ: 3.86
23) FLRQLPFRGDDGIGDDNFIEERKQ: 4.33
24) WLRQLPFRGDDGIFDDNFIEERKQ: 3.03
25) FLRQLPFRGDDGIFDDNFIQERKQ: 2.74
26) FLRQLPFRGDDGIFDDNFIECRKQ: 2.85
27) FLRQLPFRGADGIFDDNFIEERKQ: 3.12
28) HLRQLPFRGDDGIFDDNFIEERKQ: 5.32
29) FLRQLPFRGDDGIFDDNFIEEDKQ: 3.44
30) FLRQLPFRGDDGIFCDNFIEERKQ: 2.99
31) FLRQLPFRGDDGIFDDNFLEERKQ: 3
32) FLRQLPFRGDDGIFDDNFIEPRKQ: 2.62
33) FLRQLPFRGDDGIFDANFIEERKQ: 2.62
34) FLRQLYFRGDDGIFDDNFIEERKQ: 2.9
35) FLCQLPFRGDDGIFDDNFIEERKQ: 2.71
36) FLRQLPFRGDDGIFDDNLIEERKQ: 3.75
37) FLRQLPFRGDDGIFDDIFIEERKQ: 2.7
38) FLRQLPFRGDDGIFDDNFIEERYQ: 2.99
39) FLRQLPFRGDDGIWDDNFIEERKQ: 3.38
40) FLRQLPFRGDIGIFDDNFIEERKQ: 2.53
41) FLNQLPFRGDDGIFDDNFIEERKQ: 3.48
42) FLRQLPFRGDEGIFDDNFIEERKQ: 2.9
43) FLRQLPFRGDDGIFDDNFMEERKQ: 3.75
44) FLRQLPFRGDDGHFDDNFIEERKQ: 3.67
45) FLRQLPFRGDDGIFDDNFIEERKL: 2.79
46) FLRQLPFRGDDGIFDDNFIEERNQ: 3.92
47) FLRQLPFRGDDGIFTDNFIEERKQ: 3.94
48) FLRQVPFRGDDGIFDDNFIEERKQ: 4.15
49) FLRQLPFRGDDGIFDDNFIEERKT: 2.84
50) FHRQLPFRGDDGIFDDNFIEERKQ: 2.34
51) FLRQLPFRGDDGIFDDNFIEEGKQ: 3.66
52) FLRQLPFMGDDGIFDDNFIEERKQ: 3.1
53) FLRQLPFRGDDGIFDDNFIAERKQ: 3.57
54) FLRQLPFRGDDGYFDDNFIEERKQ: 3.83
55) FLRQEPFRGDDGIFDDNFIEERKQ: 4.62
56) FLRQLPFRGGDGIFDDNFIEERKQ: 2.76
57) FLRQLPFRGDDGIFDDNFIEERMQ: 3.26
58) FLRQLPFRGDDGIFDDNIIEERKQ: 3.08
59) FWRQLPFRGDDGIFDDNFIEERKQ: 3.02
60) FLRQLPFRGDDGIFDWNFIEERKQ: 2.73
61) FLRQLPFRKDDGIFDDNFIEERKQ: 3.39
62) FLRQLPFNGDDGIFDDNFIEERKQ: 3.68
63) FLRQLPFRGDDGIFGDNFIEERKQ: 3.12
64) FLRQLPFRGDDGIFDDHFIEERKQ: 3.41
65) FLRQLPFRGDDGIFDMNFIEERKQ: 2.95
66) FLRQLPFRGDDGIFDDNFIEERWQ: 2.75
67) FLRQWPFRGDDGIFDDNFIEERKQ: 1.96
68) FLRQLPFRGDDGIFDDMFIEERKQ: 2.79
69) FLRQLPFRGDDGIFDDNFIEERKV: 2.61
70) FLPQLPFRGDDGIFDDNFIEERKQ: 4.09
71) FLRQLPFRGDDGIFDDNFIEELKQ: 2.87
72) FLRQLPFRTDDGIFDDNFIEERKQ: 2.97
73) FLRQLPFRGDDGIFDDAFIEERKQ: 2.54
74) FLRQLPFRGDDGIFDDNFIPERKQ: 2.44
